Readings of NanoBRET Fold Response for the listed compounds
target: GHSR (Homo sapiens, UniProt Q92847); construct: purchased Promega (in-house HiBiT-GPCR construct library, NanoBRET); assay: NanoBRET screen HiBiT-GHSR in HEK293; assay type: binding; settings: GHSR; tracer 0.1μM
Sequence (Q92847 whole entry): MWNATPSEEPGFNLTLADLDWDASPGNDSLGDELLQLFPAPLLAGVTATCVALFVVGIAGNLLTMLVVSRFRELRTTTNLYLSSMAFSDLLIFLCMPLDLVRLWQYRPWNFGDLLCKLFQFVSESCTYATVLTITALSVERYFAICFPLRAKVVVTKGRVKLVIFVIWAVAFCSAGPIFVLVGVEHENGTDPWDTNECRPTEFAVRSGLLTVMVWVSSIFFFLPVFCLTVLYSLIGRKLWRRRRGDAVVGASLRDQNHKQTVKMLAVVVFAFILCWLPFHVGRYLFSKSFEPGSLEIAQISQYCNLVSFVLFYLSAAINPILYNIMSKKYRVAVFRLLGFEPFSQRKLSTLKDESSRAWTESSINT
Answer with the value's number alone.

| COMPOUND | MEASURED_PROPERTY | EXPERIMENTAL_VALUE |
| --- | --- | --- |
| N#CN=C(NCCCOc1cccc(CN2CCCCC2)c1)NCCNC(=O)CCOCCOCCOCCOCCNC(=O)CCc1ccc2n1[B-](F)(F)[N+]1=C(c3ccc[nH]3)C=CC1=C2 [Aminopotentidine-2-NB590] | NanoBRET Fold Response | 0.98 |
| O=C(CCc1ccc2n1[B-](F)(F)[N+]1=C(c3ccc[nH]3)C=CC1=C2)NCCOCCOCCNC(=O)OCCOCCN1CCN(C2=Nc3ccccc3Sc3ccccc32)CC1 [Quetiapine-a-2-NB590] | NanoBRET Fold Response | 0.97 |
| COc1ccccc1N1CCN(CCCCN2C(=O)c3ccc(CNC(=O)CCOCCOCCOCCOCCNC(=O)CCc4ccc5n4[B-](F)(F)[N+]4=C(c6ccc[nH]6)C=CC4=C5)cc3C2=O)CC1 [NAN-190-2-NB590] | NanoBRET Fold Response | 1.01 |
| Cc1nc2n(c(=O)c1CCN1CCC(c3noc4cc(F)ccc34)CC1)CCCC2OC(=O)NCCOCCOCCOCCOCCNC(=O)CCc1ccc2n1[B-](F)(F)[N+]1=C(c3ccc[nH]3)C=CC1=C2 (stereo not drawn) [Risperidone-2-NB590] | NanoBRET Fold Response | 1.06 |
| O=C(CCOCCOCCOCCOCCNC(=O)CCc1ccc2n1[B-](F)(F)[N+]1=C(c3ccc[nH]3)C=CC1=C2)NCCCN1CCN(C2=Nc3ccccc3Oc3ccc(Cl)cc32)CC1 [Loxapine-a-2-NB590] | NanoBRET Fold Response | 0.97 |

Okay, next one:
Q: Please give measured NanoBRET Fold Response of the following entry: CCCn1c(=O)c2[nH]c(-c3ccc(OCC(=O)NCCNC(=O)CCOCCNC(=O)c4ccc(CNC(=O)CCc5ccc6n5[B-](F)(F)[N+]5=C(c7ccc[nH]7)C=CC5=C6)cc4)cc3)nc2n(CCC)c1=O [XAC-3-NB590]
Result: 1.07

----------
molecular target: FZD4 (Homo sapiens); construct: purchased Promega (in-house HiBiT-GPCR construct library, NanoBRET); assay: NanoBRET screen HiBiT-FZD4 in HEK293; assay type: binding; conditions: FZD4; tracer 0.1μM
Sequence (Q9ULV1 37-537): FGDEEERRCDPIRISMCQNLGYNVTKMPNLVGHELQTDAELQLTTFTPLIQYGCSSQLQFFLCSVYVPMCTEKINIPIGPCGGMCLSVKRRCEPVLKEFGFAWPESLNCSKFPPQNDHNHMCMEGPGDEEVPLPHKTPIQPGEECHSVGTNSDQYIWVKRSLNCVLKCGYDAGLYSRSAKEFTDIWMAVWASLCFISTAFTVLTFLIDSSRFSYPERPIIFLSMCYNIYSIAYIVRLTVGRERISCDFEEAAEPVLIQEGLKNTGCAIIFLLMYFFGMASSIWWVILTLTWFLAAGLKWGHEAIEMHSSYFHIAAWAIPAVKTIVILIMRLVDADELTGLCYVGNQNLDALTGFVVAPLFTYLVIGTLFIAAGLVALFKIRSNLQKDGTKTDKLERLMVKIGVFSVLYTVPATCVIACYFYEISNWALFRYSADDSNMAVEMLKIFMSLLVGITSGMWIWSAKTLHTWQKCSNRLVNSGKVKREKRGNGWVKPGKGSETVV
MEASURED_PROPERTY: NanoBRET Fold Response

Q: Recall and state the measured NanoBRET Fold Response for N#CN=C(NCCCOc1cccc(CN2CCCCC2)c1)NCCNC(=O)CCOCCOCCOCCOCCNC(=O)CCc1ccc2n1[B-](F)(F)[N+]1=C(c3ccc[nH]3)C=CC1=C2 .
Result: 0.98

----------
biological target: FPR2 (Homo sapiens, UniProt P25090); construct: purchased Promega (in-house HiBiT-GPCR construct library, NanoBRET); experiment: NanoBRET screen HiBiT-FPR2 in HEK293; format: binding; conditions: FPR2; tracer 0.1μM
Sequence (P25090 whole entry): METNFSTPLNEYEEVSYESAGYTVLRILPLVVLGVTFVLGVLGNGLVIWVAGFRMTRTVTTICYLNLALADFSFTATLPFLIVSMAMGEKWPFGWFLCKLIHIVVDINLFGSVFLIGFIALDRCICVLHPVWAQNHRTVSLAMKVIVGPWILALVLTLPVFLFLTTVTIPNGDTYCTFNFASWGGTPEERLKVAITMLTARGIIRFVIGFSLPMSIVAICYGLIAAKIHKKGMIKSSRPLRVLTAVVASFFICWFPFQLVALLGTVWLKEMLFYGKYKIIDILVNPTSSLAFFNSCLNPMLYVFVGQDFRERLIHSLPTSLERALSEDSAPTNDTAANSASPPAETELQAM
MEASURED_PROPERTY: NanoBRET Fold Response

Guide cases for NanoBRET Fold Response, answers given:
| COMPOUND | NanoBRET Fold Response |
| --- | --- |
| O=C(CCc1ccc2n1[B-](F)(F)[N+]1=C(c3ccc[nH]3)C=CC1=C2)NCCOCCOCCNC(=O)OCCOCCN1CCN(C2=Nc3ccccc3Sc3ccccc32)CC1 [Quetiapine-a-2-NB590] | 1.06 |
| CC(C)N(CC[C@H](c1ccccc1)c1cc(CCNC(=O)CCOCCOCCOCCOCCNC(=O)CCc2ccc3n2[B-](F)(F)[N+]2=C(c4ccc[nH]4)C=CC2=C3)ccc1O)C(C)C [Tolterodine-2-NB590] | 1.07 |
| COc1ccccc1N1CCN(CCCCN2C(=O)c3ccc(CNC(=O)CCOCCNC(=O)c4ccc(CNC(=O)CCc5ccc6n5[B-](F)(F)[N+]5=C(c7ccc[nH]7)C=CC5=C6)cc4)cc3C2=O)CC1 [NAN-190-3-NB590] | 1.35 |
| N#CN=C(NCCCOc1cccc(CN2CCCCC2)c1)NCCNC(=O)CCOCCOCCOCCOCCNC(=O)CCc1ccc2n1[B-](F)(F)[N+]1=C(c3ccc[nH]3)C=CC1=C2 [Aminopotentidine-2-NB590] | 0.95 |
| CC(C)N(CC[C@H](c1ccccc1)c1cc(CCNC(=O)c2ccc(CNC(=O)CCc3ccc4n3[B-](F)(F)[N+]3=C(c5ccc[nH]5)C=CC3=C4)cc2)ccc1O)C(C)C [Tolterodine-BZ-NB590] | 0.95 |
| O=C(CCc1ccc2n1[B-](F)(F)[N+]1=C(c3ccc[nH]3)C=CC1=C2)NCc1ccc(C(=O)NCCOCCC(=O)N[C@@H]2CC[C@@]3(O)[C@H]4Cc5ccc(O)c6c5[C@@]3(CCN4CC3CC3)[C@H]2O6)cc1 [Naltrexone-3-NB590] | 0.87 |

Q: Answer with reported NanoBRET Fold Response of COc1ccccc1N1CCN(CCCCN2C(=O)c3ccc(CNC(=O)CCOCCOCCOCCOCCNC(=O)CCc4ccc5n4[B-](F)(F)[N+]4=C(c6ccc[nH]6)C=CC4=C5)cc3C2=O)CC1 [NAN-190-2-NB590]
Result: 0.56

Q: Answer with the recorded NanoBRET Fold Response for the compound listed here: CCCn1c(=O)c2[nH]c(-c3ccc(OCC(=O)NCCNC(=O)CCOCCNC(=O)c4ccc(CNC(=O)CCc5ccc6n5[B-](F)(F)[N+]5=C(c7ccc[nH]7)C=CC5=C6)cc4)cc3)nc2n(CCC)c1=O [XAC-3-NB590]
Result: 0.89

----------
molecular target: OXTR (Homo sapiens, UniProt P30559); construct: purchased Promega (in-house HiBiT-GPCR construct library, NanoBRET); test: NanoBRET screen HiBiT-OXTR in HEK293; type: binding; settings: OXTR; tracer 1μM
Sequence (P30559 whole entry): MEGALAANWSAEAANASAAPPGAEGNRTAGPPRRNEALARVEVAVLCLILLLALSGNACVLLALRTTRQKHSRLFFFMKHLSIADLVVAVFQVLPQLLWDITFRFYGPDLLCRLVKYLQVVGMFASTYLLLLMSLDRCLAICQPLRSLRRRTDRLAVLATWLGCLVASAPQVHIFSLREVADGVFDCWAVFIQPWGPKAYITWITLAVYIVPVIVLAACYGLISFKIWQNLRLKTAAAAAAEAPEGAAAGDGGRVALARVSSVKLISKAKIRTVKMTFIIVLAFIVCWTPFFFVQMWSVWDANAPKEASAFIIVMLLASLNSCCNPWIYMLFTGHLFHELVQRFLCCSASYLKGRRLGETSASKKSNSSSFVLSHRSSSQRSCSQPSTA
Below, each entry is listed alongside its reported NanoBRET Fold Response.
Please state the value as a number alone, without comment.

Some entries whose results are on file:
| SAMPLE_SMILES | TGT | EXPERIMENTAL_VALUE |
| --- | --- | --- |
| N#CN=C(NCCCOc1cccc(CN2CCCCC2)c1)NCCNC(=O)CCOCCOCCOCCOCCNC(=O)CCc1ccc2n1[B-](F)(F)[N+]1=C(c3ccc[nH]3)C=CC1=C2 | OXTR (Homo sapiens, UniProt P30559) | 1.04 |
| O=C(CCc1ccc2n1[B-](F)(F)[N+]1=C(c3ccc[nH]3)C=CC1=C2)NCCOCCOCCNC(=O)OCCOCCN1CCN(C2=Nc3ccccc3Sc3ccccc32)CC1 | OXTR (Homo sapiens, UniProt P30559) | 0.82 |

Q: Please report the measured NanoBRET Fold Response for CC(C)N(CC[C@H](c1ccccc1)c1cc(CCNC(=O)c2ccc(CNC(=O)CCc3ccc4n3[B-](F)(F)[N+]3=C(c5ccc[nH]5)C=CC3=C4)cc2)ccc1O)C(C)C
Result: 1.01

Q: Write down NanoBRET Fold Response measured for item CCCn1c(=O)c2[nH]c(-c3ccc(OCC(=O)NCCNC(=O)CCOCCNC(=O)c4ccc(CNC(=O)CCc5ccc6n5[B-](F)(F)[N+]5=C(c7ccc[nH]7)C=CC5=C6)cc4)cc3)nc2n(CCC)c1=O
Result: 0.98

Q: Give the measured NanoBRET Fold Response for Cc1cc2c(s1)Nc1ccccc1N=C2N1CCN(CCCNC(=O)CCOCCOCCOCCOCCNC(=O)CCc2ccc3n2[B-](F)(F)[N+]2=C(c4ccc[nH]4)C=CC2=C3)CC1
Result: 0.96

----------
molecular target: GRM5 (Homo sapiens); construct: purchased Promega (in-house HiBiT-GPCR construct library, NanoBRET); assay: NanoBRET screen HiBiT-GRM5 in HEK293; assay type: binding; conditions: GRM5; tracer 1μM
Sequence (P41594 21-1212): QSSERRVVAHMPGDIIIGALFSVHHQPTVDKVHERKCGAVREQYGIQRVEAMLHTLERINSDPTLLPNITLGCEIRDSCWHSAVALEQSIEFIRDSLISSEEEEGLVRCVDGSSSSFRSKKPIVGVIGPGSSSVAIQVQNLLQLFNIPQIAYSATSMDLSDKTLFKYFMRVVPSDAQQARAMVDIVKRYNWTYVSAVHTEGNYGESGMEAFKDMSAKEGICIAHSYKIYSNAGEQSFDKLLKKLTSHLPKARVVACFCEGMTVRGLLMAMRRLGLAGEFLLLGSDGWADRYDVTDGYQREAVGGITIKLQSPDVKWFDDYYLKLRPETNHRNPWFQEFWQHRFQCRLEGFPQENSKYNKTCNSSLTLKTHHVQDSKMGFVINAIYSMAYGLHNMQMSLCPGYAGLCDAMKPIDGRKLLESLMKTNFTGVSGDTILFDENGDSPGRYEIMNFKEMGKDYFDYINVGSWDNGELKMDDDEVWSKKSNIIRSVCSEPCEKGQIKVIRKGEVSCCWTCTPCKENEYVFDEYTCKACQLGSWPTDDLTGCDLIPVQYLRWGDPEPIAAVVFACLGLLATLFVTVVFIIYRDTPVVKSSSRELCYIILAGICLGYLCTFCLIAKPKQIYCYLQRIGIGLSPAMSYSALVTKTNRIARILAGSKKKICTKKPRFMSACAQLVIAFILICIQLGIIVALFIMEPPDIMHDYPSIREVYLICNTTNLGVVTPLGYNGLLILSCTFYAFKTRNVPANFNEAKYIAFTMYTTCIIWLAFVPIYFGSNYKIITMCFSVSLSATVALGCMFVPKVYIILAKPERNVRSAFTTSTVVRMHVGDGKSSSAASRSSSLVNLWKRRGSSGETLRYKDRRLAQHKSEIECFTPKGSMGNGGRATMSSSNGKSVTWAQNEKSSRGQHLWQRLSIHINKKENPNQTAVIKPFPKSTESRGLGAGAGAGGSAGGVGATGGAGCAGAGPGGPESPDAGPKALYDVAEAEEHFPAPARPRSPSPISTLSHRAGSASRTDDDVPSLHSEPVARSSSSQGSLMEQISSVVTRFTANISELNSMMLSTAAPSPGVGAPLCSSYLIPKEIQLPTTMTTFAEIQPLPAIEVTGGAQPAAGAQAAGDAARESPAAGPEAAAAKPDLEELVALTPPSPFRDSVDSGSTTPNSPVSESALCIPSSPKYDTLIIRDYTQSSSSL
MEASURED_PROPERTY: NanoBRET Fold Response
The response must contain the number and no unit.

| COMPOUND | TGT | NanoBRET Fold Response |
| --- | --- | --- |
| COc1ccccc1N1CCN(CCCCN2C(=O)c3ccc(CNC(=O)CCOCCOCCOCCOCCNC(=O)CCc4ccc5n4[B-](F)(F)[N+]4=C(c6ccc[nH]6)C=CC4=C5)cc3C2=O)CC1 [NAN-190-2-NB590] | GRM5 (Homo sapiens) | 1.04 |
| O=C(CCOCCOCCOCCOCCNC(=O)CCc1ccc2n1[B-](F)(F)[N+]1=C(c3ccc[nH]3)C=CC1=C2)NCCCN1CCN(C2=Nc3ccccc3Oc3ccc(Cl)cc32)CC1 [Loxapine-a-2-NB590] | GRM5 (Homo sapiens) | 1.04 |
| N#CN=C(NCCCOc1cccc(CN2CCCCC2)c1)NCCNC(=O)CCOCCOCCOCCOCCNC(=O)CCc1ccc2n1[B-](F)(F)[N+]1=C(c3ccc[nH]3)C=CC1=C2 [Aminopotentidine-2-NB590] | GRM5 (Homo sapiens) | 0.98 |
| O=C(CCc1ccc2n1[B-](F)(F)[N+]1=C(c3ccc[nH]3)C=CC1=C2)NCCOCCOCCNC(=O)OCCOCCN1CCN(C2=Nc3ccccc3Sc3ccccc32)CC1 [Quetiapine-a-2-NB590] | GRM5 (Homo sapiens) | 1.05 |

Now for a further compound.
Q: Provide NanoBRET Fold Response, recorded with GRM5 (Homo sapiens), of CCCn1c(=O)c2[nH]c(-c3ccc(OCC(=O)NCCNC(=O)CCOCCNC(=O)c4ccc(CNC(=O)CCc5ccc6n5[B-](F)(F)[N+]5=C(c7ccc[nH]7)C=CC5=C6)cc4)cc3)nc2n(CCC)c1=O [XAC-3-NB590]
Result: 0.98
